Just for reference, BindingDB's records for patent US8962648 is where these values come from.

Target: Lymphokine-activated killer T-cell-originated protein kinase (Homo sapiens)
Sequence (Q96KB5 whole entry): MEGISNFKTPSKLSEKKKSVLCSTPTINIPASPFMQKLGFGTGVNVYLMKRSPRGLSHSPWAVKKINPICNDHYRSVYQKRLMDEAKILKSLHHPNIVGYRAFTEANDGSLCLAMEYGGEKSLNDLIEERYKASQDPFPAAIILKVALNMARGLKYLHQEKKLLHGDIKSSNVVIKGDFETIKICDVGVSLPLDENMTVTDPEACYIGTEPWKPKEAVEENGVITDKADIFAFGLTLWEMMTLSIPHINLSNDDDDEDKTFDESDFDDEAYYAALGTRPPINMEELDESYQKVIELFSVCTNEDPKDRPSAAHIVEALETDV
Assay: Kinase Assay
Conditions: pH 7.4; 25 °C
Criterion: IC50 strictly under 8 nM. Met: T. Not met: F.

Below, 2 compounds whose answers are already recorded.
Compound	Category Label
NCC1(c2ccc(-c3c(O)ccc4[nH]c(=O)c5sccc5c34)cc2)CC1 [US8962648, 348]	T
CC(N)Cc1ccc(-c2c(O)ccc3[nH]c(=O)c4sccc4c23)cc1 (configuration not stated) [US8962648, 1095]	T

Here's an entry: CS(=O)(=O)Nc1ccc(-c2c(O)ccc3[nH]c(=O)c4sccc4c23)cc1 [US8962648, 77] . Is its IC50 below 8 nM?
T

Here's an entry: CC[C@H](c1ccc(-c2c(O)ccc3[nH]c(=O)c4sccc4c23)cc1)N(C)C [US8962648, 1151] . Is its IC50 below 8 nM?
T

Here's an entry: CCN(CC)Cc1ccc(-c2c(O)ccc3[nH]c(=O)c4sccc4c23)cc1 [US8962648, 184] . Is its IC50 below 8 nM?
T

Here's an entry: CN[C@@H](C)c1ccc(-c2c(O)ccc3[nH]c(=O)c4sccc4c23)cc1 [US8962648, 1082] . Is its IC50 below 8 nM?
T

Here's an entry: CN(C)S(=O)(=O)c1ccc(-c2c(O)ccc3[nH]c(=O)c4sccc4c23)cc1 [US8962648, 304] . Is its IC50 below 8 nM?
F

Here's an entry: CN[C@@H](C)c1ccc(-c2c(OC)ccc3[nH]c(=O)c4sccc4c23)cc1 [US8962648, 1064] . Is its IC50 below 8 nM?
T

Here's an entry: Cc1cc(-c2c(O)ccc3[nH]c(=O)c4sccc4c23)ccc1NS(C)(=O)=O [US8962648, 254] . Is its IC50 below 8 nM?
T

Here's an entry: CN(C)CCc1ccc(-c2c(O)ccc3[nH]c(=O)c4sccc4c23)cc1F [US8962648, 327] . Is its IC50 below 8 nM?
T

Here's an entry: COc1ccc2[nH]c(=O)c3sccc3c2c1-c1ccc(CN2CCC(CNC(=O)OC(C)(C)C)CC2)cc1 [US8962648, 139] . Is its IC50 below 8 nM?
F

Here's an entry: NCc1ccc(-c2c(O)ccc3[nH]c(=O)c4sccc4c23)s1 [US8962648, 266] . Is its IC50 below 8 nM?
T

Here's an entry: COc1cc(C)c2[nH]c(=O)c3sccc3c2c1-c1ccc(C2(CN)CC2)cc1 [US8962648, 1251] . Is its IC50 below 8 nM?
F

Here's an entry: CN(C)CC1(c2ccc(-c3c(O)ccc4[nH]c(=O)c5sccc5c34)cc2)CC1 [US8962648, 379] . Is its IC50 below 8 nM?
T

Here's an entry: NCc1ccc(-c2c(O)cc(Br)c3[nH]c(=O)c4sccc4c23)cc1 [US8962648, 270] . Is its IC50 below 8 nM?
F

Here's an entry: CC(CBr)NS(=O)(=O)c1ccc(-c2c(O)ccc3[nH]c(=O)c4sccc4c23)cc1 (configuration not stated) [US8962648, 1062] . Is its IC50 below 8 nM?
F

Here's an entry: CC[C@@H](N)c1ccc(-c2c(O)ccc3[nH]c(=O)c4sccc4c23)cc1 [US8962648, 1131] . Is its IC50 below 8 nM?
T
